Hello, the source for this data is ChEMBL document CHEMBL3407370, in case you need it.

Can you tell me pIC50 for the items I'm about to list?
- targetSystem: Acetylcholinesterase (Electrophorus electricus, UniProt O42275)
- Sequence (O42275 whole entry): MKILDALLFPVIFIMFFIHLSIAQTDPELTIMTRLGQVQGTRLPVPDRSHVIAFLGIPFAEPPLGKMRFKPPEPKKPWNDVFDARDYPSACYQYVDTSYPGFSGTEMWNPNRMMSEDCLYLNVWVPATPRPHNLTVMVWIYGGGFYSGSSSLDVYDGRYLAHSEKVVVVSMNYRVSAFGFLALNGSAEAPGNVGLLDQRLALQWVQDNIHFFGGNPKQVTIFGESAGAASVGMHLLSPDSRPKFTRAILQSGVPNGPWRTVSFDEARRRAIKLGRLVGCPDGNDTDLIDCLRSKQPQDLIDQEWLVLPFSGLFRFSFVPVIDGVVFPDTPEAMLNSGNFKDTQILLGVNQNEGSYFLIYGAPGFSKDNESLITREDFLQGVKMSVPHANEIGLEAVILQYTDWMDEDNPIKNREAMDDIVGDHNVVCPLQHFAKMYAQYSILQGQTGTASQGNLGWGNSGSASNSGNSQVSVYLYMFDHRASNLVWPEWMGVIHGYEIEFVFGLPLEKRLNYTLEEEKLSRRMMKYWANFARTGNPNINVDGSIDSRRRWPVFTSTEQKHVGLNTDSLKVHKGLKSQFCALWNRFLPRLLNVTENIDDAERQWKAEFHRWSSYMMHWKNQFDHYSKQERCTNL
- assayProtocol: Inhibition of electric eel acetylcholinesterase using acetylthiocholine iodide as substrate after 15 mins by Ellman's method
Recall that pIC50 is obtained by taking minus log10 of the concentration measured in molar.

Lookup result for `O=c1c2ccccc2n(Cc2cn(Cc3ccccc3)nn2)c2ccc(Cl)cc12` ; measured pIC50: 4.06

Record summary for `O=c1c2ccccc2n(Cc2cn(Cc3ccc(Cl)cc3)nn2)c2c(F)cccc12` : reported pIC50 = 4.61

The compound listed as `O=c1c2ccccc2n(Cc2cn(Cc3ccc(Cl)cc3)nn2)c2ccccc12` has a reported pIC50 of 4.22

###

Kindly state IC50 for each of the entries shown.

Short answer on UniProt:O42275 for `O=c1c2ccccc2n(Cc2cn(Cc3ccc([N+](=O)[O-])cc3)nn2)c2ccc(Br)cc12` , IC50: 52.8 µM

So the reported IC50 for `COc1ccc2c(c1)c(=O)c1ccccc1n2Cc1cn(Cc2ccc(Cl)cc2)nn1` , on UniProt:O42275, turned out to be 7.31 µM

Form field IC50 for item `O=c1c2ccccc2n(Cc2cn(Cc3ccc(Cl)cc3)nn2)c2ccc(Cl)cc12` on UniProt:O42275: 17.7 µM

Field IC50 (system: UniProt:O42275) for entry `Cc1ccc2c(c1)c(=O)c1ccccc1n2Cc1cn(Cc2ccccc2)nn1` = ≥ 100 µM

Measured IC50 (UniProt:O42275), entry `Cc1ccc2c(c1)c(=O)c1ccccc1n2Cc1cn(Cc2ccc(Cl)cc2)nn1` : 10.8 µM

Measured on UniProt:O42275, `O=c1c2ccccc2n(Cc2cn(Cc3ccc([N+](=O)[O-])cc3)nn2)c2ccc(Cl)cc12` has a documented IC50 of 38.3 µM

Item: `O=c1c2ccccc2n(Cc2cn(Cc3ccc(Cl)cc3)nn2)c2ccc(Br)cc12` | System: UniProt:O42275 | IC50: 45.6 µM

Kindly note: UniProt:O42275, `COc1ccc2c(c1)c(=O)c1ccccc1n2Cc1cn(Cc2ccccc2)nn1` , IC50 value reported: 24 µM

IC50 value, target or system UniProt:O42275, for `O=c1c2ccccc2n(Cc2cn(Cc3ccccc3)nn2)c2ccccc12` : ≥ 100 µM

Tested system UniProt:O42275; IC50 recorded for `O=c1c2ccccc2n(Cc2cn(Cc3ccccc3)nn2)c2ccc(Br)cc12` was 68.1 µM

###

Hi there, I'd appreciate the recorded inhibition (INH) for every entry that follows.
- assayProtocol: Antioxidant activity assessed as DPPH radical scavenging activity at 700 ug/ml incubated in dark condition measured after 30 mins by UV/vis spectrophotometric analysis relative to control
- Assay type: physicochemical
- experimentalParameters: 0.5 h
Number only, in %; omit the unit.

So for `COc1ccc2c(c1)c(=O)c1ccccc1n2Cc1cn(Cc2ccccc2)nn1` , the logged inhibition (INH) turned out to be 8.65

Quick note, inhibition (INH) for `O=c1c2ccccc2n(Cc2cn(Cc3ccc(Cl)cc3)nn2)c2ccccc12` landed at 21.78

Value of measured inhibition (INH) for the entry `O=c1c2ccccc2n(Cc2cn(Cc3ccccc3)nn2)c2ccc(Cl)cc12` : 26.6

Form: compound = `O=c1c2ccccc2n(Cc2cn(Cc3ccccc3)nn2)c2c(F)cccc12` ; inhibition (INH) = 14.79

Lab book: inhibition (INH) of `Cc1ccc2c(c1)c(=O)c1ccccc1n2Cc1cn(Cc2ccccc2)nn1` noted as 7.09

###

I'd be grateful if you could share measured EC50 for these entries.
- assayProtocol: Antioxidant activity assessed as DPPH radical scavenging activity incubated in dark condition measured after 30 mins by UV/vis spectrophotometric analysis
- Format: physicochemical

Query `O=c1c2ccccc2n(Cc2cn(Cc3ccccc3)nn2)c2c(F)cccc12` yields EC50 of > 700 µg/mL

Recorded EC50 (compound `O=c1c2ccccc2n(Cc2cn(Cc3ccc(Cl)cc3)nn2)c2ccccc12` ): > 333 µg/mL

Measured EC50 of `O=c1c2ccccc2n(Cc2cn(Cc3ccccc3)nn2)c2ccc(Cl)cc12` : > 700 µg/mL

Lookup result for `Cc1ccc2c(c1)c(=O)c1ccccc1n2Cc1cn(Cc2ccccc2)nn1` ; measured EC50: > 333 µg/mL

response.value for `COc1ccc2c(c1)c(=O)c1ccccc1n2Cc1cn(Cc2ccccc2)nn1` (field: EC50) = > 700 µg/mL
